Numbers sourced from patent US20250179161A1.

# TEST_SYSTEM: T1, Amyloid Beta (Aβ) 1-42 (human)
# T1 construct: The same peptide was used in several aggregation states: fibrils, a heterogeneous aggregate mixture, and soluble oligomers or aggregates; also called Aβ42; Aβ 42
# T1 sequence (peptide, as listed by the source): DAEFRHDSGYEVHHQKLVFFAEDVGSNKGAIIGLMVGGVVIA
# TEST_DETAILS: SPR (BIAcore T200), Aβ1-42 fibrils immobilized on CM5, Fab as analyte, global 1:1 fit
Field: koff. Provide a value for each of the binders that follow.

Working through the 3 binders below one at a time, give koff for each.
1. h2726 Fab (Fab, V domains shown) VH: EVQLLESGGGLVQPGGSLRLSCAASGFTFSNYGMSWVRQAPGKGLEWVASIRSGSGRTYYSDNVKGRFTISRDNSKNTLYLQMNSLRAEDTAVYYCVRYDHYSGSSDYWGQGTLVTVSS VL: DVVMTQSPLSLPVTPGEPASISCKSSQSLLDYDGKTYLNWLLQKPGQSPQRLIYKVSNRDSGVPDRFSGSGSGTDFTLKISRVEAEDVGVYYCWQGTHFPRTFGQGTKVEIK
2. h2931 Fab (Fab, V domains shown) VH: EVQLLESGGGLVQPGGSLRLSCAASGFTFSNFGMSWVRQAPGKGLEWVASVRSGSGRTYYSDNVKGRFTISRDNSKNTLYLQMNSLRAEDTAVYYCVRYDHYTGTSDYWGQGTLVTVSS VL: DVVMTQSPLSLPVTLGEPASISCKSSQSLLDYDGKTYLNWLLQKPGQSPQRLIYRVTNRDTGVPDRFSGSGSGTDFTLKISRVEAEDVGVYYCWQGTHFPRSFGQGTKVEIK
3. h2831 Fab (Fab, V domains shown) VH: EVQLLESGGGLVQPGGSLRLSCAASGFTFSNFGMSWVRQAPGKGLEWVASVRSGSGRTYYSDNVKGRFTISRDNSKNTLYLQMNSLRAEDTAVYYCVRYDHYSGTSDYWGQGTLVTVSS VL: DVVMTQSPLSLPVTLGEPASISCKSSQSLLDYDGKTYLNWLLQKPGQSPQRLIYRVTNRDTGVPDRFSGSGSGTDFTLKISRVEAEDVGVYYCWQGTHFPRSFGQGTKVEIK

### Response
1. 0.000259 s⁻¹
2. 0.000199 s⁻¹
3. 0.000248 s⁻¹

### Prompt Look up koff of h2731 Fab (Fab, V domains shown) VH: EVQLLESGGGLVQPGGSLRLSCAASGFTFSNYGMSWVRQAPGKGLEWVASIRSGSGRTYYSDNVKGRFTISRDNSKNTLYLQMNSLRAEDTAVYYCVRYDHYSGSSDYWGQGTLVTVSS VL: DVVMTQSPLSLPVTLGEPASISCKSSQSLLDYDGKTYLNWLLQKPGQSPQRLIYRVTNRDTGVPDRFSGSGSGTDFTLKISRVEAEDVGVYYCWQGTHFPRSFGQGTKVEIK and report it.
### Response 0.000289 s⁻¹
